Source: patent US12312332B2

Measured pEC50 values are reported for all entries that follow.
- TARGET_SYSTEM: UniProt O43614
- Sequence (O43614 whole entry): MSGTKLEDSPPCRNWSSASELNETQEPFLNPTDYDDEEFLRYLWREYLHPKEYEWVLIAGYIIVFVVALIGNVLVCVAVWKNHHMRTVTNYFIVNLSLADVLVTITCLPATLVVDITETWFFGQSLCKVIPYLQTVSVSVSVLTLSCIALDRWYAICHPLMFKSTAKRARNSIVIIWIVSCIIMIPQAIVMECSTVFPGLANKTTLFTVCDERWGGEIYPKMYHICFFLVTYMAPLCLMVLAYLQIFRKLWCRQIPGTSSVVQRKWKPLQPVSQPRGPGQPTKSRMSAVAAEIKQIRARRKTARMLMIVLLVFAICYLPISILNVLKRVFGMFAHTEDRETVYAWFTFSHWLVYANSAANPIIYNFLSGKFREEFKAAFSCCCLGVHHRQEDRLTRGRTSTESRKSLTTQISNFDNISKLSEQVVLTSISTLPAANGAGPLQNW
- METHOD_DESCRIPTION: IPOne (IP-One) orexin receptor agonist assay in CHO cells expressing human OX2R
- PARTICULARS: CHO cells expressing human OX2R; IP-One detection; 2 hours incubation; four parameter logistic fit; read-out: OX2R Potency, EC50
pEC50: −log10 of the molar value.

[
  {
    "SMI": "CS(=O)(=O)N[C@H]1CCN(c2ccc(C#N)cn2)[C@H]1CO[C@H]1CC[C@@H](c2ccccc2)CC1",
    "pEC50": "< 5.00"
  },
  {
    "SMI": "COc1cncc(N2CC[C@H](NS(C)(=O)=O)[C@@H]2CO[C@H]2CC[C@@H](c3ccccc3)CC2)c1C",
    "pEC50": "< 5.00"
  },
  {
    "SMI": "CS(=O)(=O)N[C@H]1CCN(c2cc(C(F)(F)F)ncn2)[C@H]1CO[C@H]1CC[C@@H](c2ccccc2)CC1",
    "pEC50": "< 5.00"
  },
  {
    "SMI": "CS(=O)(=O)N[C@H]1CCN(c2cccc(C#N)c2)[C@H]1CO[C@H]1CC[C@@H](c2ccccc2)CC1",
    "pEC50": "< 5.00"
  }
]
